PROCEDURE_SUMMARY: Microsomal stability (Cyprotex)
PARTICULARS: mouse, liver microsomes
# key: entry, value: half-life at 1 µM
EXPERIMENTAL_ENDPOINT: half-life at 1 µM (min)

# COMPOUND, EXPERIMENTAL_ENDPOINT, VALUE
rows = [
    ("CN1CCN(c2ccc(Nc3nc(Oc4cccc5c4ccn5C)c4cc[nH]c4n3)cc2)CC1", "half-life at 1 µM", 8.3),
    ("CC(C)N1CCN(c2ccc(Nc3nc(OCC(F)(F)F)c4cc[nH]c4n3)cc2)CC1", "half-life at 1 µM", 30.3),
    ("CC(C)N1CCN(c2ccc(Nc3nc(OCC4CC4(F)F)c4cc[nH]c4n3)cc2)CC1 (stereo not shown)", "half-life at 1 µM", 25.8),
    ("CC(C)N1CCN(c2ccc(Nc3nc(OCC4CCCCC4)c4nc[nH]c4n3)cc2)CC1", "half-life at 1 µM", 4.3),
]
